Hey, just so you know, these numbers are from patent US8377911B2.

# Test system: Male beagle dogs
# Experimental protocol: canine telemetry protocol, blood pressure reduction efficacy
# Format: in vivo
# Run conditions: telemetered male beagle dogs, 3 mg/kg, oral gavage, 1-6 h
Quantity name: ΔSBP (systolic blood pressure), change from baseline, 1-6 h (mm Hg)

>>> observed_result("CCCCON=[N+]([O-])N1CCC[C@H]1C(=O)Oc1c(C)ncc2c1CO[C@H]2c1ccc(Cl)cc1 (stereo in doubt) [Example 1]")
"−15.4"
>>> observed_result("CC[C@H](C)CON=[N+]([O-])N1CCC[C@H]1C(=O)Oc1c(C)ncc2c1CO[C@H]2c1ccc(Cl)cc1 (stereo in doubt) [Example 10]")
"−5.3"
>>> observed_result("Cc1ncc2c(c1OC(=O)[C@@H]1CCCN1[N+]([O-])=NOC1CCCCC1)CO[C@H]2c1ccc(Cl)cc1 (stereo in doubt) [Example 11]")
"−9.3"
>>> observed_result("CCCCO/N=[N+](\\[O-])N1CCC(C(=O)Oc2c(C)ncc3c2CO[C@H]3c2ccc(Cl)cc2)CC1 [Example 12]")
"−11"
>>> observed_result("Cc1ncc2c(c1OC(=O)[C@@H]1CCCN1[N+]([O-])=NOCC(C)C)CO[C@H]2c1ccc(Cl)cc1 (stereo in doubt) [Example 5]")
"−2.4"
>>> observed_result("CCCC(C)ON=[N+]([O-])N1CCC[C@H]1C(=O)Oc1c(C)ncc2c1CO[C@H]2c1ccc(Cl)cc1 (stereo in doubt) [Example 9]")
"−11.8"
